# System: PfHDP1 homeodomain (GST-tagged)
# method: gcPBM binding intensity (ln(normalized median fluorescence intensity)); higher = stronger DNA binding
Whole data set: some 25,000 sequences, median “ln(normalized median fluorescence intensity)” near 6.7, cut for the highest 2% near 10. The full list was thinned out, with the highest values kept by preference.
readout.type: gcPBM binding intensity (ln)
Give bare numbers.

* ATATTATATATATGTGCACACAAAAGATATATATAT [CACACA_site2125] | 10.5

Look up gcPBM binding intensity (ln) for the entries below, preserving their order.
1. AAAGTTTTTATAAAAAAAAAAATAAATACCATATAT [XGTACX_negctrl_site113]
2. CATTATGTTGTAAATACACACATACATATACATACA [CACACA_site8143]
3. AAAAAAAAAAGACACACACACAAAAAAAGATATATA [CACACA_site6645]
4. GAGAAATGGGGACACACACACATATTATATATATAT [CACACA_site4943]
5. AGAAAGAAGATATATACACACAAAAAAAGATATATA [CACACA_site6779]
6. CCTTGTCTTTTTTTTTTTTTTTTTTCTTCTTATTTT [GTGCAC_negctrl_site523]

Outgoing:
1: 6.5; 2: 6.76; 3: 6.58; 4: 8.53; 5: 6.75; 6: 6.24

Batch of 7 sequences: report gcPBM binding intensity (ln) for each.
1. CGTAAATTTTTTAAAAGTACAAAAAGATACGAGAAA [XGTACX_site8722]
2. TATACAAACTATGATGCACACATATATATATGTATA [CACACA_site8327]
3. TTTAAATTTTAATATGCACACAAAATGTTATATTAA [CACACA_site8015]
4. TTCCTCTTAATATGTGCACACTAAATTATAACATAA [CACACA_site3260]
5. TTCCAAAAAGTTATTACACACATATGTGCACATATA [CACACA_site6465]
6. ATTTATAAAATTAATGCACACATCAGCATTTATAAA [CACACA_site1025]
7. CACTTCATAAAAATTGCACACATATAATAATGTACA [CACACA_site8692]

Outgoing:
[6.46, 8.97, 9.9, 11.1, 11.2, 10.6, 10.1]

Could you report gcPBM binding intensity (ln) for every entry in the following list?
1. ATAAATTTATATACTTGTACATATATATATTACATA [XGTACX_site6697]
2. ACTAAACTTATATGTACACACATATAACATTAATTT [CACACA_site2258]

Outgoing:
1. 6.7
2. 6.67

###

# System: PfHDP1 homeodomain (GST-tagged)
# method: gcPBM binding intensity (ln(normalized median fluorescence intensity)); higher = stronger DNA binding
In all, about 25,000 sequences were measured (“ln(normalized median fluorescence intensity)”: median about 6.7, highest 2% from about 10 on). This excerpt belongs to a sample that is enriched for the highest values.
readout.type: gcPBM binding intensity (ln)
Give bare numbers.

• AAAAATAGAGCAGCTCTCATATTTTTATGTGCAATA [CACACA_negctrl_site837] = 10.6
• CTACTTAATATTTGTACACACATATTTAACCTACTA [CACACA_site5725] = 7.02

# per-item lookup of gcPBM binding intensity (ln); items listed below
1. AAAAAAAAAAAAAAAAGTACAAAAATATATATGCAT [XGTACX_site8392]
2. CAAAATATTTTTATAACACACATATATAGAATGTGC [CACACA_site1145]
3. TATTATTTAATCAAATGTACATAGAAAATGTATGTA [XGTACX_site4433]

Outgoing:
1: 6.48; 2: 6.34; 3: 6.21

###

# Test system: PfHDP1 homeodomain (GST-tagged)
# method: gcPBM binding intensity (ln(normalized median fluorescence intensity)); higher = stronger DNA binding
Over roughly 25,000 sequences, “ln(normalized median fluorescence intensity)” has its median near 6.7; the highest 2% begin near 10. The sample as a whole holds a higher share of the highest values than the screen did.
Please use met whenever gcPBM binding intensity (ln) is not below 9, and not met whenever it is.

* TAATGTTGAGAATTTTGTACATATAGATCAATTTAT [XGTACX_site5426] | not met
* AAAAGAAGATAATACAGTACAGAATAATATAAAATA [XGTACX_site5962] | not met
* ATCAACATCTAACATTGTACATGTGATGTGTAAAAG [XGTACX_site547] | not met

Shift focus to the following entry.
Incoming: Textbook exercise: given the entry AATATATTTATGCTCATGCACTTTTTTTTTTTTTTT [GTGCAC_site9654] , state whether its gcPBM binding intensity (ln) is greater than or equal to 9.
Outgoing: met

###

# Tested on: PfHDP1 homeodomain (GST-tagged)
# method: gcPBM binding intensity (ln(normalized median fluorescence intensity)); higher = stronger DNA binding
The full ranking holds about 25,000 sequences; the median of “ln(normalized median fluorescence intensity)” is about 6.7, and the highest 2% start at about 10. The entries come from a sample that favours the highest values as a whole.
Hi, to clarify the labels: true (1) covers gcPBM binding intensity (ln) from 9 upward, false (0) covers anything below 9.

Incoming: Reported gcPBM binding intensity (ln) reaches at least 9 for TGCACAAAGTTATGCACACACCTAAAATTAATTTTT [CACACA_site7385] ?
Outgoing: true (1)

###

What gcPBM binding intensity (ln) was measured for each of the following?
# System: PfHDP1 homeodomain (GST-tagged)
# method: gcPBM binding intensity (ln(normalized median fluorescence intensity)); higher = stronger DNA binding
In all, about 25,000 sequences were measured (“ln(normalized median fluorescence intensity)”: median about 6.7, highest 2% from about 10 on). The sample as a whole holds a higher share of the highest values than the screen did.
Numbers only.

In the examples that follow, each entry is paired with its recorded gcPBM binding intensity (ln).
• TATTCAGGTCCAATGGTGCAATATATTTTTGTAATA [GTGCAC_site9607] = 10.6
• TGTTTTTAAAAATATACACACACAGATATTATATAT [CACACA_site8162] = 6.73
• TTTTTTTATATAGACACAAAAGAAAATTACATATAC [CACACA_negctrl_site235] = 6.49
• ATTCATTTACCAATGGTGCAATATATTTTTATAATG = 10.3

Kindly consider the entry below.
Incoming: Report its gcPBM binding intensity (ln) with PfHDP1 homeodomain (GST-tagged) as the test system: AAGGTATGATTAATCACACACATAAATATATATACA [CACACA_site2658]
Outgoing: 6.67

###

# Test system: PfHDP1 homeodomain (GST-tagged)
# method: gcPBM binding intensity (ln(normalized median fluorescence intensity)); higher = stronger DNA binding
The full ranking holds about 25,000 sequences; the median of “ln(normalized median fluorescence intensity)” is about 6.7, and the highest 2% start at about 10. The sample holds the highest values, similar sequences and a random draw of the others, so the mix is not that of the screen.
readout.type: gcPBM binding intensity (ln)

Known results for sequences:
* TTTTTTTCAATATTTGCACACGATTATAATATTTAA [CACACA_site2237] | 10.3
* TATACATATTTTATAGCACACAAATAATAATATGTA [CACACA_site8129] | 6.63
* TTCTATTTTATATGTGCACACATATACACCCACAAA [CACACA_site1130] | 10.9
* ACCTATTTCAAACACACACACACACTAGCAAACATA [CACACA_site4695] | 7.26
* TTTATATTTTTTTTTGCACACTTTAAAAAAATATAT [CACACA_site1146] | 9.29
* TATATACATATATGCACACAAAAAAATATATATTTT [CACACA_site1729] | 10.1
* GAACAATATATTTGCACACAAAAAATATATATTTAT [CACACA_site3317] | 10.7
* CTATTTTATATGTGCACACATATACACCCACAAATA [CACACA_site1131] | 10.1

Incoming: Return gcPBM binding intensity (ln) (reported value) for this sequence: ATATTTATATATTGCACACAAAAAAAAAAAAAAATC [CACACA_site1629]
Outgoing: 10.4

###

# Test system: PfHDP1 homeodomain (GST-tagged)
# method: gcPBM binding intensity (ln(normalized median fluorescence intensity)); higher = stronger DNA binding
The full ranking holds about 25,000 sequences; the median of “ln(normalized median fluorescence intensity)” is about 6.7, and the highest 2% start at about 10. Only a selection was taken, and the highest values are over-represented in it overall.
Kindly supply the reported gcPBM binding intensity (ln) values for the records listed here.

Each sequence below has a recorded value; state its gcPBM binding intensity (ln).
1. TCTTTATGTAAGGTCTTCCACAAAAAAATTAAAAAA [TGCATGCA_negctrl_site229]
2. ATATATATTTATATATATATATATATATATATGTAT [GTGCAC_negctrl_site220]
3. ATGATAATTATTAAGGGTACATAAAAATATATCTAT [XGTACX_site8969]
4. TTTTGTACAAAAATAATGCACACTATATCAAGTTTT [CACACA_site3595]

Outgoing:
6.21
7.92
6.36
10.4

# batch: return gcPBM binding intensity (ln) for each of the 5 sequences below
1. ATATGTATGTATTTATTATTGTGCATTGTATTTATA [CACACA_negctrl_site664]
2. AAATTAATACATTATTGTACTTTTCATGTGCAGAAA [XGTACX_site8284]
3. CCACTAATTATGTGCACACAAATTAAAGGTCTACAA [CACACA_site4259]
4. AAATATCTACATATTTGTACATATTTATACATATTT [XGTACX_site6300]
5. AAGATAAAATGATGCACACAAAAGGGTGTAATATAT [CACACA_site1706]

Outgoing:
1. 10.3
2. 8.11
3. 11.4
4. 6.12
5. 8.59

Please state gcPBM binding intensity (ln) for every sequence in the list that follows.
1. ATCAAAATTGTCATTACACACCTTTATTTTTAGAAT [CACACA_site1813]
2. AAATAAAAAGGGTGCACACAAAAATATATATATATA [CACACA_site1728]

Outgoing:
[6.6, 10.4]

Dear colleague, could you send me gcPBM binding intensity (ln) for each of the items below? Thanks.
1. TTTTTTTTTAATCATGCACACTGTTAAAAGAATAAA [CACACA_site4817]
2. TAAATATGCTCACAGATGCACTAACACATTTTTATA [GTGCAC_site9997]
3. AAAAAAATAAGGTGCACACAAAAAAAAAAAAAAAAA [CACACA_site812]
4. GTACACTAATTATGTGCACACAAATTAAAGGTCTAC [CACACA_site146]
5. ATATTTTTATGATGTATCCAAGAAATGGAACTATAT [CACACA_negctrl_site1268]
6. ACGGACAATACGGAAACACACAAGTTATTTTATCAT [CACACA_site7310]

Outgoing:
8.29
10.4
9.95
11
6.23
6.21
